Reported Fluorescence intensity of IL-18BP binding values follow for various binders
Biological target: T1, recombinant human interleukin-18 (human, UniProt Q14116 37-193)
T1 construct: Commercially available recombinant human IL-18; also called IL-18; free IL-18
T1 sequence (looked up): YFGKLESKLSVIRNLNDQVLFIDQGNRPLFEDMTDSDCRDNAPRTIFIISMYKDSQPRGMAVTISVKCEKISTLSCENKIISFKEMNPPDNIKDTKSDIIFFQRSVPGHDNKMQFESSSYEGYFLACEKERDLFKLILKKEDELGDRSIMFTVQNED
Assay: Luminex, biotinylated IL-18BP (competitor) on IL-18 beads pre-complexed with the antibody
Quick note: number first, unit second.

Some entries whose results are on file:
1) Antibody 108F8 (antibody, V domains shown, Mouse hybridoma monoclonal antibody) VH: QIQLVQSGPDSKKPGETVKLSCRASGYTFTNYGMNWVKQAPGKGLKWMGWINTYSGVPTYADDFKGQFAFSLETSAATAFLQINNLKDEDTATYFCAREGYSTTRSMDYWGQGTSVTVSS VL: DIVMSQSPSSLAVSAGEKVTMSCKSSQSLLDSRTRKNYLVWYQQKPGQSPKLLIYWASTRGSGVPDRFTGSGSGTDFTLTISSVQAEDLAVYYCKQSYNLRTFGGGTKLEIK ... 1290 fluorescence intensity
2) Antibody 132H4 (antibody, V domains shown, Mouse hybridoma monoclonal antibody) VH: EVKLVESGGGLVKPGGSLKLSCAASGFTFSNYAMSWVRQNPAKRLEWVATISSGGANIYYPDSVKGRFIISRDNARNTLYLQMSSLRSEDTAMYYCARGDYFNHFWFAYWGQGTLVTVSA VL: DVLMTQTPLSLPVSLGDQASISCRSSQSIVHSNGNTYLEWYLQKPGQSPKFLIYKVSNRFSGVPDRFSGSGSGTDFTLKINRVEAEDLGIYYCFQGSHVPWTFGGGTKLEIK ... 1490 fluorescence intensity
3) Antibody 107C6 (antibody, V domains shown, Mouse hybridoma monoclonal antibody; also called clone #107C6) VH: QIQLVQSGPELKKPGETVKLSCRASGYTFTNYGMNWVKQAPGKGLKWMGWINTYSGVPTYADDFKGQFAFSLETSAATAFLQINNLKDEDTATYFCAREGYSTTRSMDYWGQGTSVTVSS VL: DIVMSQSPSSLAVSAGEKVTMSCKSSQSLLDSRTRKNYLVWYQQKPGQSPKLLIYWASTRGSGVPDRFTGSGSGTDFTLTISSVQAEDLAVYYCKQSYNLRTFGGGTKLEIK ... 1390 fluorescence intensity

Request: Dear colleague, I am looking for the recorded Fluorescence intensity of IL-18BP binding of the following binder: Antibody 109A6 (antibody, V domains shown, Mouse hybridoma monoclonal antibody) VH: EVQLQQSGAELVKPGASVKLSCTASGFKIKDTYIHWVIQRPAQGLEWIGRIDPANGNTIYGSKFQGKATLTADTSSNTAYIHLSSLTSGDSAVYYCAGYVWFAYWGQGTLVTVSA VL: DVVMTQVPLSLPVSLGDQASISCRSSQRLVHSNGNTYLHWFLQKPGQSPKLLIYTVSNRFSGVPDRFSGSGSGTDFTLKISRVEAEDLGVYFCSQSTLVPWTFGGGTKLEIK
Response: 913 fluorescence intensity
